system: passive Arthus reaction; test: Anti-inflammatory activity test: passive Arthus reaction (Example of Test 2); type: in vivo, male guinea pigs of the Hartley strain; settings: Table 21; 3 mg/kg i.v., 30 min before antigen
In this section we review reported Percent inhibition (passive Arthus reaction) values for a set of molecules.
Give the value, in units of %, as a plain number.

Molecule	Meas Value
CCCOC1OC(CO)C(OC2OC(CO)C(OS(=O)(=O)[O-])C(OS(=O)(=O)[O-])C2OS(=O)(=O)[O-])C(OC2OC(C)C(O)C(O)C2O)C1NC(C)=O.[Na+].[Na+].[Na+] (stereo not drawn)	67.8
CCCOC1OC(CO)C(OC2OC(C)C(O)C(O)C2O)C(OC2OC(CO)C(O)C(OCC(=O)[O-])C2O)C1NC(C)=O.[Na+] (stereo not drawn)	15.4

Q) I have this molecule here, CCCOC1OC(CO)C(OC2OC(CO)C(O)C(OCC(=O)[O-])C2OCC(=O)[O-])C(OC2OC(C)C(O)C(O)C2O)C1NC(C)=O.[Na+].[Na+] (stereo not drawn) , and I need its recorded Percent inhibition (passive Arthus reaction).
A) 60.8

###

Reported Percent inhibition (passive Arthus reaction) values are given for each entry in this list.
test system: passive Arthus reaction; assay: Anti-inflammatory activity test, carried out as Example of Test 2 (Example of Test 3); assay type: in vivo, male guinea pigs of the Hartley strain; details: Table 22; 1 mg/kg, i.v.
Field: numeric (%). Do not append units.

Compound	Meas Value
CCCOC1OC(CO)C(OC2OC(C)C(O)C(O)C2O)C(OC2OC(CO)C(OS(=O)(=O)[O-])C(OS(=O)(=O)[O-])C2OS(=O)(=O)[O-])C1NC(C)=O.[Na+].[Na+].[Na+] (centres unmarked)	92.4
CCCOC1OC(CO)C(OC2OC(C)C(O)C(O)C2O)C(OC2OC(CO)C(O)C(O)C2OS(=O)(=O)[O-])C1NC(C)=O.[Na+] (centres unmarked)	67.1
COc1ccc(OC2OC(CO)C(OC3OC(CO)C(O)C(OS(=O)(=O)[O-])C3OC(=O)C(C)(C)C)C(OC3OC(C)C(O)C(O)C3O)C2OC(=O)C(C)(C)C)cc1.[Na+] (centres unmarked)	84.8
COc1ccc(OC2OC(CO)C(OC3OC(CO)C(OS(=O)(=O)[O-])C(O)C3O)C(OC3OC(C)C(O)C(O)C3O)C2O)cc1.[Na+] (centres unmarked)	23.9

Q) # get_value(readout= Percent inhibition (passive Arthus reaction), system= passive Arthus reaction) for COc1ccc(OC2OC(CO)C(OC3OC(CO)C(O)C(OS(=O)(=O)[O-])C3O)C(OC3OC(C)C(O)C(O)C3O)C2O)cc1.[Na+] (centres unmarked)
A) 70.1

###

test system: passive Arthus reaction; experiment: Anti-inflammatory activity test, carried out as Example of Test 2 (Example of Test 3); format: in vivo, male guinea pigs of the Hartley strain; conditions: Table 22; 0.01 mg/kg, i.v.
Measured Property: Percent inhibition (passive Arthus reaction) (%)
# value in %; strip the unit string

Here is how some compounds turned out for Percent inhibition (passive Arthus reaction).
Compound	Scale Unit	Meas Value
CCCOC1OC(CO)C(OC2OC(C)C(O)C(O)C2O)C(OC2OC(CO)C(O)C(OS(=O)(=O)[O-])C2O)C1NC(C)=O.[Na+] (centres unmarked)	%	73.6
CCCOC1OC(CO)C(OC2OC(C)C(O)C(O)C2O)C(OC2OC(CO)C(OS(=O)(=O)[O-])C(O)C2O)C1NC(C)=O.[Na+] (centres unmarked)	%	79.3
COc1ccc(OC2OC(CO)C(OC3OC(CO)C(O)C(OS(=O)(=O)[O-])C3OC(=O)C(C)(C)C)C(OC3OC(C)C(O)C(O)C3O)C2OC(=O)C(C)(C)C)cc1.[Na+] (centres unmarked)	%	-3.3
CCCOC1OC(CO)C(OC2OC(C)C(O)C(O)C2O)C(OC2OC(CO)C(O)C(O)C2OS(=O)(=O)[O-])C1NC(C)=O.[Na+] (centres unmarked) [Compound 175]	%	44.6

Turning now to a further record.
Q) Query (compound): CCCOC1OC(CO)C(OC2OC(C)C(O)C(O)C2O)C(OC2OC(CO)C(O)C(O)C2OS(=O)(=O)[O-])C1NC(C)=O.[Na+] (centres unmarked) [Compound 188] ; field requested: Percent inhibition (passive Arthus reaction)
A) 57.2
